Tested on: HOP-62 NSCLC
run_description: NCI tumour cell line growth inhibition, 48 h
observation_type: TGI

query: Give recorded TGI with HOP-62 NSCLC for the following molecule: COc1ccc(Cc2nccc3cc(OC)c(OC)cc23)cc1
result: > 100 µM

query: Test system HOP-62 NSCLC; read-out TGI; what value for O=C(Nc1ccn(C2CCC(CO)O2)c(=O)n1)c1ccccc1 (stereo not given) ?
result: > 100 µM

query: Test system HOP-62 NSCLC; read-out TGI; what value for CCOC(=O)NC(=O)c1cn(CCN2CCN(C(=O)CCCCCCCCCCNc3ncnc4c3ncn4C3OC(CO)C(O)C3O)CC2)c(=O)[nH]c1=O (stereo not given) ?
result: > 100 µM

query: Record lookup: for HOP-62 NSCLC, what TGI belongs to CCOC(=O)C1=C(C#N)S(=O)(=O)c2c(oc(C)c2C)N1 ?
result: > 100 µM

query: // map CCn1cc(C(=O)O)c(=O)c2ccc(C)nc21 to recorded TGI (system: HOP-62 NSCLC)
result: > 100 µM

query: Please provide the recorded TGI for COc1cc(Nc2cc(O)c3c(=O)cc(-c4ccccc4)oc3c2)cc(OC)c1 , tested on HOP-62 NSCLC.
result: 20.9 µM

query: Notebook: pull reported TGI for HOP-62 NSCLC, entry CN(C)/C=N/S(=O)(=O)c1nn2c(C=O)c(-c3ccccc3)nc2s1
result: > 100 µM

query: Item Cn1c([N+](=O)[O-])cnc1/C=C1\Oc2ccc(Br)cc2C1=O with HOP-62 NSCLC - TGI?
result: 3.95 µM

query: Notebook entry, HOP-62 NSCLC assay: TGI of CN(c1ccc(C(=O)O)cc1)c1cc(O/N=[N+](\[O-])N(C)C)c([N+](=O)[O-])cc1[N+](=O)[O-] = ?
result: 31.3 µM

query: Notebook: pull reported TGI for HOP-62 NSCLC, entry Cc1cccc(NS(=O)(=O)c2ccc3c(c2)OCCOCCOCCOCCO3)c1
result: > 100 µM

---

Test system: HT29 colon
run_description: NCI tumour cell line growth inhibition, 48 h
Record form. Attribute: TGI. Fill in for each entry.

query: Entry under review: CCOC(=O)c1c(Sc2ccc([N+](=O)[O-])cc2[N+](=O)[O-])nc2c3ccccc3ccn12 . Reported TGI?
result: > 100 µM

query: Any idea what its TGI is? The compound is O=C(C(=O)c1cc(-c2ccccc2)nc2ccc3ccccc3c12)c1ccccc1
result: > 100 µM

query: Endpoint output: TGI of COc1cc2c(c(OC)c1OC)CCNC2C1=C(O)COC1=O (stereo unspecified) . Value?
result: > 100 µM

query: // returns reported TGI for input CC(=O)Nc1cccc2[nH]c3ccccc3c(=O)c12
result: 40.9 µM

query: For Cc1ccc(N(CC(=O)Nc2ccc(S(=O)(=O)NC3CCN(C)CC3)cc2)S(=O)(=O)c2ccc(Cl)cc2)cc1 , what is its reported TGI?
result: 7.5 µM

query: Report TGI for CN(C)c1nc2nonc2nc1Nc1ccccc1 please.
result: > 100 µM

query: So what does the record say about TGI for CCOC(=O)NC(NCC(O)c1ccccc1)(C(F)(F)F)C(F)(F)F (stereo unspecified) ?
result: > 100 µM

query: Give the measured TGI of COc1cccc2c1C(=O)c1c(O)c3c(c(O)c1C2=O)C[C@@](O)(C(=O)CO)C[C@@H]3OC1CC(N(C)C)C(O)C(C)O1 (stereo partly specified) .
result: 1.82 µM

query: Return reported TGI; argument: COc1ccc(NC2C(=O)C3(C)CCC2C3(C)C)cc1 (stereo unspecified)
result: > 100 µM

query: # query: TGI of entry O=c1c(-c2ccccc2)c(SCCN2CCCC2)n(-c2ccccc2)c(=S)n1-c1ccccc1
result: > 100 µM

query: Using the record for CNc1ccccc1S(=O)(=O)c1ccccc1[N+](=O)[O-] , report its TGI.
result: > 100 µM

---

Tested on: NCI-H23 lung
run_description: NCI tumour cell line growth inhibition, 48 h
observation_type: TGI

query: Please report the recorded TGI for COC(=O)CCCC(=O)C1=Nc2ccccc2CN(c2ccc(Cl)cc2)N1 .
result: > 100 µM

query: Item under review: CN1N(c2ccccc2)C(=O)C2=NC=C(C(=O)c3ccccc3)C(=N)C21C (centres undefined) . Reported TGI?
result: > 100 µM

query: Any idea what TGI was measured for O=C1CC(=O)c2c(N3CCCC3)sc(N3CCCC3)c21 ?
result: > 100 µM

query: Field request: TGI | item: O=[N+]([O-])c1cc([N+](=O)[O-])c(NN=C(c2ccc(O)cc2)c2ccc(O)cc2)cc1Cl
result: 4.45 µM

query: Find the recorded TGI belonging to COC(=O)[C@@H]1CCc2nc3ccccc3c(=O)n21 and report it.
result: > 100 µM

query: Quick one: TGI of CCC(=O)Nc1cccc(NC(=O)c2c(Cl)c(Cl)c(Cl)c(Cl)c2-c2nc3ccccc3[nH]2)c1 ?
result: > 100 µM

query: For the compound CCOC(=O)c1c(Sc2ccc([N+](=O)[O-])cc2[N+](=O)[O-])nc2c3ccccc3ccn12 , what TGI is on record?
result: > 100 µM

query: // query TGI value for entry CC(C)(C)c1ccc2c(c1)OP1(Oc3cccc4cccnc34)(O2)Oc2ccc(C(C)(C)C)cc2O1
result: 10.2 µM

query: State the recorded TGI for this entry: CCOC(=O)NC(=O)c1cn(CCN2CCN(C(=O)CCCCCCCCCCNc3ncnc4c3ncn4C3OC(CO)C(O)C3O)CC2)c(=O)[nH]c1=O (centres undefined)
result: > 100 µM

---

Give measured TGI for each item. Keep answers brief.
System: COLO 205 colon
run_description: NCI tumour cell line growth inhibition, 48 h

query: TGI for Cc1ccc(N(CC(=O)Nc2ccc(S(=O)(=O)NC3CCN(C)CC3)cc2)S(=O)(=O)c2ccc(Cl)cc2)cc1 ?
result: 3.89 µM

query: Reported TGI for CCC(=O)OCC1OC(n2cnc3c(=S)nc(N)[nH]c32)C(OC(=O)CC)C1OC(=O)CC (stereo unspecified) : what is it?
result: 18.4 µM

query: Given COc1ccc2nccc(/C=C/c3ccc(N(C)C)cc3)c2c1 , state its recorded TGI.
result: > 10 µM

query: TGI lookup needed for COC(=O)C1=C(C(=O)OC)SC2(S1)C1=C(CCC1)SC(C(=O)OC)=C2C(=O)OC , thanks.
result: 42 µM

query: Given O=C(C(=O)c1cc(-c2ccccc2)nc2ccc3ccccc3c12)c1ccccc1 , state its recorded TGI.
result: > 100 µM

query: Reported TGI for CCOc1ccccc1/C=C(/C#N)C(N)=O : what is it?
result: > 100 µM

query: // TGI lookup, key: CCN(Cc1cc(F)cc(F)c1)c1ccc(CO)c(Cl)c1
result: 10.5 µM

query: Would you kindly share the measured TGI for COc1cc(C(=O)Nc2cccc3ccccc23)c(Br)c(OC)c1OC ?
result: > 100 µM

query: Suppose we examine the compound O=C(O)Cc1cc(F)ccc1C(=O)O ; what TGI value has been reported?
result: > 100 µM

query: Need TGI of NCCCNc1nc2ccccc2c2c(=O)c3cccc(F)c3sc12 , thanks.
result: 3.69 µM

query: I have this compound here, NCCC1([N+](=O)[O-])C=CN=CC1 (stereo unspecified) , and I need its recorded TGI.
result: > 100 µM

---

Could you please report measured TGI for the items listed next?
Test system: SK-OV-3 ovarian
run_description: NCI tumour cell line growth inhibition, 48 h

query: Please give the measured TGI for this compound: C1CSC2=C(S1)SC1=C(S2)SC(=C2SC3=C(SC4=C(SCCS4)S3)S2)S1
result: > 100 µM

query: What value of TGI has been reported for the following compound? O=C1c2cccc3cc4ccccc4c(c23)C(=O)N1CCNCCN1C(=O)c2cccc3cc4ccccc4c(c23)C1=O
result: 5.8 µM

query: Tell me the measured TGI of CN(C)CCNc1c2c(c(NCCN(C)C)c3c(CN(C)C)c[nH]c13)C(=O)c1ccccc1C2=O , please.
result: 40.2 µM

query: Looking for the measured TGI of CC(c1ccccc1)N1C(=O)CSC1=S (stereo unspecified) , can you help?
result: > 81.8 µM

query: Return reported TGI; argument: [O-][n+]1c(-c2ccccc2)oc2ccccc21
result: > 100 µM

query: Name the reported TGI value associated with the compound CNc1ccccc1S(=O)(=O)c1ccccc1[N+](=O)[O-]
result: > 100 µM

query: Which TGI value is on record for O=c1[nH]c2cc([N+](=O)[O-])ccc2nc1/C(=N/Nc1ccccc1)C(O)c1ccc(Cl)cc1Cl (stereo unspecified) ?
result: > 100 µM

query: What does the data say about its TGI? Entry: C=CC(O)(CBr)CCC(Br)C(C)(C)Cl (stereo unspecified)
result: > 10 µM

query: I have this compound here, COc1cccc(-c2nnc3c(-c4ccccc4)nc4ccccc4n23)c1 , and I need its recorded TGI.
result: > 100 µM

query: Given the entry CCOc1ccccc1/C=C(/C#N)C(N)=O , report its measured TGI.
result: > 100 µM

query: What TGI value was documented for this compound, Cc1ccc(-c2cc(=O)c3cc4c(cc3[nH]2)OCO4)cc1 ?
result: 28.9 µM

query: Can you look up the measured TGI of CCCCCCCCCCCCC(=O)CCCCC(=O)O for me?
result: > 100 µM

query: Fill in the blank: the reported TGI of CC(C)(C)OC(=O)NCC(=O)NC1CC=CCC1NC(=O)CNC(=O)OC(C)(C)C (stereo unspecified) is ____.
result: > 100 µM

query: Item under review: FC(F)(F)c1ccc2c(c1)nc(-c1ccccc1)n2CC1CCCN2CCCCC12 (stereo unspecified) . Reported TGI?
result: 37.3 µM

query: Which TGI value is on record for CN1C(=O)C(/C=N/NC(=O)c2cccnc2)C(N)N(C)C1=O (stereo unspecified) ?
result: > 100 µM

query: Form field: reported TGI of CN(C)/C=N/S(=O)(=O)c1nn2c(C=O)c(-c3ccccc3)nc2s1
result: > 100 µM

query: Entry Cc1ccc(N(CC(=O)Nc2ccc(S(=O)(=O)NC3CCN(C)CC3)cc2)S(=O)(=O)c2ccc(Cl)cc2)cc1 : reported TGI = ?
result: 17.8 µM

query: Data request, read-out TGI, for O=S1(=O)OCCOS(=O)(=O)C1(I)I
result: 47.2 µM

query: TGI for COC1=CC(=O)c2c(c(-c3csc(C)n3)cn2C)C1=O ?
result: > 100 µM

query: What does the data say about its TGI? Entry: CS(=O)(=O)OCOS(C)(=O)=O
result: > 100 µM

query: Would you mind telling me what TGI value was observed for NC(CCCCO)C(=O)O (stereo unspecified) ?
result: > 100 µM
